Source of measurements: the supplement of paper PMC10567573

Known protein stability index of a selection of variants
B1: DYRK1B (parent)
chain: KKVLNHGYDDDNHDYIVRSGERWL

variants of: B1; assay: protein stability index of a GFP-peptide fusion (GPS, HEK-293T) (PSI 1-6); higher = more stable; settings: c terminus: a fixed tail appended;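 also: lentivirally expressed fusions sorted by FACS into six bins by GFP to DsRed ratio, PSI derived from sequencing read proportions per bin multiplied by bin number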
Output: the number by itself.

sequence-entry | protein stability index
KKVLNHGYDDDNHDYIVRSGEVWL [R22V] | 2.6
KKVLNHGYDDDNHTYIVRSGERWL [D14T] | 2.79
KKVLNHVYDDDNHDYIVRSGERWL [G7V] | 2.77
KKVLNHGYDDDNHDYIVRSGERCL [W23C] | 3.8
CKVLNHGYDDDNHDYIVRSGERWL [K1C] | 2.38

Task: Look up protein stability index for this variant: KKVLNHGYDDDNHDYTVRSGERWL [I16T]
Result: 3.47

Task: Also KKVLNHGYDDDNHDYIVRGGERWL [S19G] ?
Result: 3.25

Task: What about KKVLNHGYDHDNHDYIVRSGERWL [D10H] ?
Result: 2.75

Task: Likewise for KKVLNHGYDDDNTDYIVRSGERWL [H13T] ?
Result: 3.35

Task: Another variant: KKVLVHGYDDDNHDYIVRSGERWL [N5V]
Result: 3.22

Task: Follow-up entry: KKVLEHGYDDDNHDYIVRSGERWL [N5E]
Result: 3.46

Task: Try this variant too: KKVLNHGYDDDNHDYIVRSGEQWL [R22Q]
Result: 3.53

Task: KKVLNHGYDIDNHDYIVRSGERWL [D10I] ?
Result: 2.3

Task: Field entry: KKVLNHHYDDDNHDYIVRSGERWL [G7H]
Result: 2.84

Task: Further, for KKVLNHGYDDDNHDYIVRSGEHWL [R22H] ?
Result: 3.13

Task: For KKVHNHGYDDDNHDYIVRSGERWL [L4H] then?
Result: 3.27

Task: Another variant: KKVLNHGYDDDNHFYIVRSGERWL [D14F]
Result: 2.21
